Property: Kd; scope: individual binders
Target: T1, IFN-αWA (human, UniProt P05015 24-189)
T1 construct: Recombinant, HEK293; also called IFN-α16
Test: ProteOn SPR, cell supernatant;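 note: each binding measurement used just a single antigen concentration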

# BINDER, UNIT_INFO, Kd
data = [
    ("IFWM3414 (antibody, IgG1, V domains shown, mAb; IgG1/kappa said of the parent and of selected mAbs; also called IFWB3149) VH: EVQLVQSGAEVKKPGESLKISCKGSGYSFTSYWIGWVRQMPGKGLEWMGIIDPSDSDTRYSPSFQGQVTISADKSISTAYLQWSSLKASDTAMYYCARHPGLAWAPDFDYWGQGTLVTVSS VL: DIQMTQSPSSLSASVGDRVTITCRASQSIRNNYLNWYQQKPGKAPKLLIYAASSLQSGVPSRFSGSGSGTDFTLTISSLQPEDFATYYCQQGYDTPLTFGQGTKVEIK", "nM", 0.07),
    ("IFWM3393 (antibody, IgG1, V domains shown, mAb; IgG1/kappa said of the parent and of selected mAbs; also called IFWB3128) VH: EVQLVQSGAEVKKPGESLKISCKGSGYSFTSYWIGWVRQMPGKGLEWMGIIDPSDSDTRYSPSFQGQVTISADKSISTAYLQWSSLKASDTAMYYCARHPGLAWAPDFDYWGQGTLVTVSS VL: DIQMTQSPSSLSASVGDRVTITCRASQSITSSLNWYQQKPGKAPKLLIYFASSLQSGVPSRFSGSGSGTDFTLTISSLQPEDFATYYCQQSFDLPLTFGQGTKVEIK", "nM", 0.078),
    ("IFWM3382 (antibody, IgG1, V domains shown, mAb; IgG1/kappa said of the parent and of selected mAbs; also called IFWB3117) VH: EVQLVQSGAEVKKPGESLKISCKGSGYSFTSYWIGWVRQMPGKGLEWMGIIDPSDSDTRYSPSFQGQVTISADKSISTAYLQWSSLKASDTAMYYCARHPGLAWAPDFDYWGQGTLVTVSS VL: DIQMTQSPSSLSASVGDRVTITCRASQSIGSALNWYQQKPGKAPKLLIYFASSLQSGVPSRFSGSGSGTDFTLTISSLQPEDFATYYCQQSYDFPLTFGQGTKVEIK", "nM", 0.032),
]
